- TARGET_OR_TEST_SYSTEM: T1, UbP_C F195A (human, UniProt Q8WUN7 129-234, F195A)
- T1 sequence: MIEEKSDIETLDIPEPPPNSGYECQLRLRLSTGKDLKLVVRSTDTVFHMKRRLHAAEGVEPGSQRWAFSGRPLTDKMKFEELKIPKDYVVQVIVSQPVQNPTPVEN
- MEASUREMENT_DESCRIPTION: NMR
OUTCOME_MEASURE: Kd

Kindly note the recorded Kd for USP5_UBA1 (first UBA domain of USP5, residues 631-692) (domain or fragment) MLDESVIIQLVEMGFPMDACRKAVYYTGNSGAEAAMNWVMSHMDDPDFANPLILPGSSGPGS , which is > 3 mM
